FYI, the data here is from patent US20260022143A1.

Biological target: IL-23R (Homo sapiens, UniProt Q5VWK5)
Construct: host or cells: HEK293
Sequence (Q5VWK5 24-629): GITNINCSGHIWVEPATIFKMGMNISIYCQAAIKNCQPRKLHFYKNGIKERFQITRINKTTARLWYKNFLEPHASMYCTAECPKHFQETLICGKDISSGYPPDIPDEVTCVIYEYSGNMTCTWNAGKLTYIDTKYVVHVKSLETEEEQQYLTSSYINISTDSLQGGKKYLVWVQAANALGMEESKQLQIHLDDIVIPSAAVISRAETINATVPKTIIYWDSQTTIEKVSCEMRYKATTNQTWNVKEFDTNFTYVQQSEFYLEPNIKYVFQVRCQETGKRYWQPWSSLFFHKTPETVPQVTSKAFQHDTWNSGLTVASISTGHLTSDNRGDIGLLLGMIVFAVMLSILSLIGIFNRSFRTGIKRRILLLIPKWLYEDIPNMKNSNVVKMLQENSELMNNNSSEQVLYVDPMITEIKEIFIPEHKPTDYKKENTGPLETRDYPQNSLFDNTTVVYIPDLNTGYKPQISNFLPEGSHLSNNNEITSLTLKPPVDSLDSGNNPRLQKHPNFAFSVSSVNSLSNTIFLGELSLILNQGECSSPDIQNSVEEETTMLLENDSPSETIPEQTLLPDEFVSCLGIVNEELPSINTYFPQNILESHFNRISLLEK
Assay: IL23R Reporter Assay
Assay type: cell-based
Conditions: HEK293 cells containing IL-23R, IL-12RP1 and STAT-inducible firefly luciferase reporter; 10 ng/mL IL-23 (EC90); 5 h at 37° C.; read-out: IL23R Reporter Assay
READOUT TYPE: IC50 (nM)
Enter your answer as a number in nM; do not include the unit.

{"COMPOUND": "CC(=O)NCCCC[C@@H]1NC(=O)[C@H](Cc2c[nH]c3c(C)cccc23)NC(=O)[C@H]([C@@H](C)O)NC(=O)[C@H](CC(N)=O)NC(=O)[C@@H](NC(=O)COCCOCCNC(=O)COCCOCCNC(=O)CCCc2ccc(I)cc2)C(C)(C)SSC(C)(C)[C@@H](C(=O)N[C@@H](Cc2ccc(OCCCCC[N+](C)(C)C)cc2)C(=O)N[C@@H](Cc2ccc3ccccc3c2)C(=O)NC2(C(=O)N[C@@H](CCCCNC(C)=O)C(=O)N[C@@H](CC(N)=O)C(=O)N[C@@H](Cc3cccnc3)C(=O)N(C)CC(N)=O)CCOCC2)NC1=O", "ENDPOINT RESULT": 8.3}

INPUT: Can you share its IC50? I mean this compound: "CC(=O)NCCCC[C@@H]1NC(=O)[C@H](Cc2c[nH]c3c(C)cccc23)NC(=O)[C@H]([C@@H](C)O)NC(=O)[C@H](CC(N)=O)NC(=O)[C@@H](NC(=O)CCOCCOCC[N+](C)(C)C)C(C)(C)SSC(C)(C)[C@@H](C(=O)N[C@@H](Cc2ccc(OC(F)F)cc2)C(=O)N[C@@H](Cc2ccc3ccccc3c2)C(=O)NC2(C(=O)N[C@@H](CCCCNC(C)=O)C(=O)N[C@@H](CC(N)=O)C(=O)N[C@@H](Cc3cccnc3)C(=O)N(C)CC(N)=O)CCOCC2)NC1=O"
OUTPUT: 5.5

INPUT: Follow-up entry: CC(=O)N[C@@H]1C(=O)N[C@@H](CC(=O)N(C)C)C(=O)N[C@@H]([C@@H](C)O)C(=O)N[C@@H](Cc2c[nH]c3c(C)cccc23)C(=O)N[C@H](COCCOCC[N+](C)(C)C)C(=O)N[C@H](C(=O)N[C@@H](Cc2ccc(OCCOCCOCC[N+](C)(C)C)cc2)C(=O)N[C@@H](Cc2ccc3ccccc3c2)C(=O)NC2(C(=O)N[C@@H](COCCOCC[N+](C)(C)C)C(=O)N[C@@H](CC(N)=O)C(=O)N[C@@H](Cc3cccnc3)C(=O)N(C)CC(=O)N(C)C)CCOCC2)C(C)(C)SSC1(C)C (relative stereo)
OUTPUT: 22

INPUT: Follow-up entry: "CC(=O)NCCCC[C@@H]1NC(=O)[C@H](Cc2c[nH]c3c(-c4cccc(NC(C)=O)c4)cccc23)NC(=O)[C@H]([C@@H](C)O)NC(=O)[C@H](CC(N)=O)NC(=O)[C@@H](NC(C)=O)C(C)(C)SSC(C)(C)[C@@H](C(=O)N[C@@H](Cc2ccc(OCCNC(=N)N)cc2)C(=O)N[C@@H](Cc2ccc3ccccc3c2)C(=O)NC2(C(=O)N[C@@H](CCCCN(C)C(C)=O)C(=O)N[C@@H](CC(N)=O)C(=O)N[C@@H](Cc3cccnc3)C(=O)N(C)CC(N)=O)CCOCC2)NC1=O"
OUTPUT: 3.8

* * *

# IC50 per record follows
Target: IL-23R (Homo sapiens)
Construct: host or cells: HEK293
Assay: IL23R Reporter Assay
Format: cell-based
Conditions: HEK293 cells containing IL-23R, IL-12RP1 and STAT-inducible firefly luciferase reporter; 10 ng/mL IL-23 (EC90); 5 h at 37° C.; read-out: IL23R Reporter Assay
Enter your answer as a number in nM; do not include the unit.

{"MOLECULE": "CC(=O)NCCCC[C@@H]1NC(=O)[C@H](Cc2c[nH]c3c(-c4cccc(NC(C)=O)c4)cccc23)NC(=O)[C@H]([C@@H](C)O)NC(=O)[C@H](CC(N)=O)NC(=O)[C@@H](NC(=O)CCOCCOCC[N+](C)(C)C)C(C)(C)SSC(C)(C)[C@@H](C(=O)N[C@@H](Cc2ccc(OCCCCC[N+](C)(C)C)cc2)C(=O)N[C@@H](Cc2ccc3ccccc3c2)C(=O)NC2(C(=O)N[C@@H](CCCCN(C)C(C)=O)C(=O)N[C@@H](CC(N)=O)C(=O)N[C@@H](Cc3cncc(C)c3)C(=O)N(C)CC(N)=O)CCOCC2)NC1=O [compound 501]", "IC50 (nM)": 4.6}

Kindly review the next molecule as well.
INPUT: Can you share its IC50? I mean this molecule: CC(=O)NCCCC[C@@H]1NC(=O)[C@H](Cc2c[nH]c3c(C)cccc23)NC(=O)[C@H]([C@@H](C)O)NC(=O)[C@H](CC(N)=O)NC(=O)[C@@H](NC(C)=O)C(C)(C)SSC(C)(C)[C@@H](C(=O)N[C@@H](Cc2ccc(OCC3CCC([N+](C)(C)C)CC3)cc2)C(=O)N[C@@H](Cc2ccc3ccccc3c2)C(=O)NC2(C(=O)N[C@@H](CCCCNC(C)=O)C(=O)N[C@@H](CC(N)=O)C(=O)N[C@@H](Cc3cccnc3)C(=O)N(C)CC(N)=O)CCOCC2)NC1=O (single isomer, unassigned) [compound 531]
OUTPUT: 3.7

* * *

# EPSA per record follows
Experiment: Exposed Polar Surface Area (EPSA)
Type: physicochemical
Details: SFC on Chirex 3014 column; sample 1 mM DMSO stock; read-out: EPSA
Enter your answer as a number in A^2; do not include the unit.

{"MOLECULE": "COCCOCCOCCOCCOCCOCCNCCOc1ccc(C[C@H](NC(=O)[C@H]2NC(=O)[C@H](CCCCNC(C)=O)NC(=O)[C@H](Cc3c[nH]c4c(C)cccc34)NC(=O)[C@H]([C@@H](C)O)NC(=O)[C@H](CC(N)=O)NC(=O)[C@@H](NC(C)=O)C(C)(C)SSC2(C)C)C(=O)N[C@@H](Cc2ccc3ccccc3c2)C(=O)NC2(C(=O)N[C@@H](CCCCNC(C)=O)C(=O)N[C@@H](CC(N)=O)C(=O)N[C@@H](Cc3cccnc3)C(=O)N(C)CC(N)=O)CCOCC2)cc1", "ENDPOINT RESULT": 154}

Kindly review the next molecule as well.
INPUT: Can you share its EPSA? I mean this molecule: CC(=O)N[C@@H]1C(=O)N[C@@H](CC(=O)N(C)C)C(=O)N[C@@H]([C@@H](C)O)C(=O)N[C@@H](Cc2c[nH]c3c(C)cccc23)C(=O)N[C@H](COCCOCC[N+](C)(C)C)C(=O)N[C@H](C(=O)N[C@@H](Cc2ccc(OCCOCCOCC[N+](C)(C)C)cc2)C(=O)N[C@@H](Cc2ccc3ccccc3c2)C(=O)NC2(C(=O)N[C@@H](CCCCN(C)C(C)=O)C(=O)N[C@@H](CC(N)=O)C(=O)N[C@@H](Cc3cccnc3)C(=O)N(C)CC(=O)N(C)C)CCOCC2)C(C)(C)SSC1(C)C (relative stereo)
OUTPUT: 148

* * *

Assay: Exposed Polar Surface Area (EPSA)
Type: physicochemical
Conditions: SFC on Chirex 3014 column; sample 1 mM DMSO stock; read-out: EPSA
READOUT TYPE: EPSA (A^2)
Enter your answer as a number in A^2; do not include the unit.

{"COMPOUND": "COCCOCCOCC[N+](C)(C)CCc1cn(C[C@H](NC(=O)[C@H]2NC(=O)[C@H](CCCCN(C)C(C)=O)NC(=O)[C@H](Cc3c[nH]c4c(C)cccc34)NC(=O)[C@H]([C@@H](C)O)NC(=O)[C@H](CC(=O)N(C)C)NC(=O)[C@@H](NC(=O)CCOCCOCC[N+](C)(C)C)C(C)(C)SSC2(C)C)C(=O)N[C@@H](Cc2ccc3ccccc3c2)C(=O)NC2(C(=O)N[C@@H](CCCCN(C)C(C)=O)C(=O)N[C@@H](CC(N)=O)C(=O)N[C@@H](Cc3cccnc3)C(=O)N(C)CC(=O)N(C)C)CCOCC2)nn1", "EPSA [A^2]": 142}

INPUT: Can you share its EPSA? I mean this compound: CC(=O)N(C)CCCC[C@@H]1NC(=O)[C@H](Cc2c[nH]c3c(C)cccc23)NC(=O)[C@H]([C@@H](C)O)NC(=O)[C@H](CC(=O)N(C)C)NC(=O)[C@@H](NC(=O)CCOCCOCC[N+](C)(C)C)C(C)(C)SSC(C)(C)[C@@H](C(=O)NC(Cc2ccc(OCCN(CCOCC[N+](C)(C)C)CCOCC[N+](C)(C)C)cc2)C(=O)N[C@@H](Cc2ccc3ccccc3c2)C(=O)NC2(C(=O)N[C@@H](CCCCN(C)C(C)=O)C(=O)N[C@@H](CC(N)=O)C(=O)N[C@@H](Cc3cccnc3)C(=O)N(C)CC(=O)N(C)C)CCOCC2)NC1=O (some centres unmarked)
OUTPUT: 159
